Biological target: T1, full length human PAR-2 (human, UniProt P55085 26-397)
T1 construct: overexpressed on HEK293-derived 293/D9 cells; also called 293/D9/hPAR-2rec cells
T1 sequence (P55085 26-397 G138A limits assumed): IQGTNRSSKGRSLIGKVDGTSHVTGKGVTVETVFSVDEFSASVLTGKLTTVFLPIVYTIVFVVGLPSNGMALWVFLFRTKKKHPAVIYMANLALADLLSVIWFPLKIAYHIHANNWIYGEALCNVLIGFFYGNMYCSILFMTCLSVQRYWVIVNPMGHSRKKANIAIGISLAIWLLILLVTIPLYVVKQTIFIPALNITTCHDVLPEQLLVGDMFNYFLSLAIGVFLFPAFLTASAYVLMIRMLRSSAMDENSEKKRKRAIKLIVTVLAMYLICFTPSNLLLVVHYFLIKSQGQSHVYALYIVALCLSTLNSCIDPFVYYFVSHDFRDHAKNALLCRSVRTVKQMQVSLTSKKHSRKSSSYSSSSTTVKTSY
Assay: cell ELISA, 10 ug/ml antibody
Listed here are binders together with their documented A450 ratio (293/D9/hPAR-2rec to 293/D9 cells).
Give a plain numeric answer without units written out.

>  <binder>
H1M616N (antibody, V domains shown, chimeric: human variable, mouse constant domains) VH: EVQLVESGGGLAQPGRSLRVSCSASGFNFDDYAMHWVRQAPGKGLEWVSGISWNSGSRGYADSVKGRFTISRDNAKNSLYLQMNSLRAEDTALYYCVKENWAFEYWGQGTLVTVSS VL: DIVMTQTPLSSPVTLGQPASISCRSSHSLVHSDGSTYLSWLQQRPGQPPRLLIYKISNRFSGVPDRFSGSGAGTDFTLKISRVEAEDVGLYYCMQATQFPYTFGQGTKLEIK

>  <recorded.number>
2.78

$$$$

We next turn to a different binder, shown below.
Given the entry H2M591N (antibody, V domains shown, chimeric: human variable, mouse constant domains) VH: EVQLLESGGGLVQPGGSLRLSCATSGFTFSRYTMTWVRQAPGKGLFWVSGIGGSGGRAYYADSVKGRFTLSRDNSKNTLYLQMNSLRAEDTAVYYCAKEGDSGYDLDYWGRGTLVTVSS VL: DIQMTQYPSSLSASVGDRVTITCRARQGISNYLAWLQQKPGKAPKSLIYAASSLQRGVPSKFSGSGSGTDFTLTISSLQPEDSATYYCQQYKISPLTFGGGTKVEIK , report its measured A450 ratio (293/D9/hPAR-2rec to 293/D9 cells).
2.25
